- study_target: CYP2C19 (Homo sapiens)
- Construct: human liver microsomes (HLM) were used as the incubation system; from tissue; host or cells: human liver microsomes
- Sequence (P33261 whole entry): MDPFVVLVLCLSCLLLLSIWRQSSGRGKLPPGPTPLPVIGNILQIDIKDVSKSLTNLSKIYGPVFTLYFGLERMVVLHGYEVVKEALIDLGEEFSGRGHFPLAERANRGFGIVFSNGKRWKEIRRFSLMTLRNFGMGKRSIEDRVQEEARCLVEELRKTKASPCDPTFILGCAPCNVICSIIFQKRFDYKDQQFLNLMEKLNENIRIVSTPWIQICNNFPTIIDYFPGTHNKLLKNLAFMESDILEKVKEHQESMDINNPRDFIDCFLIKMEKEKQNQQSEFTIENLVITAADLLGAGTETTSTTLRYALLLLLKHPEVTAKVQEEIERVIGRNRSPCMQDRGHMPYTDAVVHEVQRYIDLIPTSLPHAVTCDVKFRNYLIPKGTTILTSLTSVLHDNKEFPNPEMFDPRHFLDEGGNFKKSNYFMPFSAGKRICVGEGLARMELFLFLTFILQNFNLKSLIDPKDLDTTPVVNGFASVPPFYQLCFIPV
- test_protocol: Cytochrome P450 isoenzyme inhibition, human liver microsomes
- Assay type: in vitro ADME
- Method: To test the inhibitory effects of the test compounds on the activities of human liver microsomal cytochrome P450 isoenzymes (CYP1A2, CYP2C9, CYP2C19, CYP2D6 and CYP3A4). Firstly, the test compound (10.0 mM) was diluted in gradient to prepare a working solution (100× final concentration), and the working solution concentrations were 5.00, 1.50, 0.500, 0.150, 0.0500, 0.0150 and 0.00500 mM respectively. […]
This section presents compounds with their documented IC50 values.
property_name: IC50

INSERT INTO assay_data (compound, property_name, result) VALUES
  ('CC1(c2ccc(Cl)cc2F)Oc2cccc(N3CCN(Cc4nc5sc(C(=O)O)cc5n4CC4CCO4)CC3)c2O1 (single isomer, unassigned) [Compound 005A]', 'IC50', '> 50 µM'),
  ('CC1(c2ccc(Cl)cc2F)Oc2cccc(C3CCN(Cc4nc5sc(C(=O)O)cc5n4C[C@@H]4CCO4)CC3)c2O1 (single isomer, unassigned)', 'IC50', '23.6 µM'),
  ('CC1(c2ccc(Cl)cc2F)Oc2cccc(C3CCN(Cc4nc5sc(C(=O)O)c(F)c5n4C[C@@H]4CCO4)CC3)c2O1 (single isomer, unassigned)', 'IC50', '> 50 µM');

###

- test_protocol: Cynomolgus monkey in vivo DMPK study
- applied_conditions: cynomolgus monkey; male cynomolgus monkeys, single oral 0.5 mg/kg, plasma
- Procedure: Male cynomolgus monkeys were used as test animals, and the plasma concentration of the compound was determined after a single oral administration and the pharmacokinetic behavior was evaluated. Two healthy male cynomolgus monkeys (fasting) were selected as the oral group. Oral vehicle was 20% hydroxypropyl-p-cyclodextrin aqueous solution. […] The drug concentration was analyzed by LC-MS/MS method, and the pharmacokinetic parameters were calculated by Phoenix WinNonlin 6.3.
property_name: Cmax (nM)

INSERT INTO measurements (compound, property_name, reading_unit, result_number) VALUES
  ('CC1(c2ccc(Cl)cc2F)Oc2cccc(C3CCN(Cc4nc5sc(C(=O)O)cc5n4C[C@@H]4CCO4)CC3)c2O1 (single isomer, unassigned) [Compound 004]', 'Cmax', 'nM', 132);

###

- test_protocol: Cynomolgus monkey in vivo DMPK study
- applied_conditions: cynomolgus monkey, plasma; male cynomolgus monkeys, single oral 0.5 mg/kg
property_name: half-life (h)

INSERT INTO assay_data (compound, property_name, result_number) VALUES
  ('CC1(c2ccc(Cl)cc2F)Oc2cccc(C3CCN(Cc4nc5sc(C(=O)O)cc5n4C[C@@H]4CCO4)CC3)c2O1 (single isomer, unassigned)', 'half-life', 3.94);

###

Dear all, this message contains pIC50 results, target or system CYP3A4 (Homo sapiens).
pIC50: −log10 of the molar value.
property_name: pIC50

INSERT INTO results (compound, rel, result_number) VALUES
  ('CC1(c2ccc(Cl)cc2F)Oc2cccc(C3CCN(Cc4nc5sc(C(=O)O)cc5n4C[C@@H]4CCO4)CC3)c2O1 (single isomer, unassigned)', '=', 4.39),
  ('CC1(c2ccc(Cl)cc2F)Oc2cccc(N3CCN(Cc4nc5sc(C(=O)O)cc5n4CC4CCO4)CC3)c2O1 (single isomer, unassigned) [Compound 005A]', '<', 4.30);

###

Reported pEC50 values follow for various compounds
- study_target: GLP-1 receptor (Homo sapiens, UniProt P43220)
- Sequence (P43220 24-463): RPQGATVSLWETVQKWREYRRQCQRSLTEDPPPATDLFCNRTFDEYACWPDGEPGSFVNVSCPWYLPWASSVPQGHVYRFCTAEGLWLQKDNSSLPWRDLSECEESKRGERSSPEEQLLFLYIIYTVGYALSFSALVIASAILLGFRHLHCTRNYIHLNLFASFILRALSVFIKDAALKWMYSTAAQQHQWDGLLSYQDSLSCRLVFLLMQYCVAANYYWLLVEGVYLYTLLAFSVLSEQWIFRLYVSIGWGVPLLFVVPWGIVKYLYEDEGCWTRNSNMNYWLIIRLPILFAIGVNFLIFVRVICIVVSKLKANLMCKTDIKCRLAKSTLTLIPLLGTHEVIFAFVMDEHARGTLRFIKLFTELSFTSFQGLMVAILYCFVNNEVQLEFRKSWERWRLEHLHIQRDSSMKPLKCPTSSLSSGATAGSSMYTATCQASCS
- test_protocol: Cell activity test in vitro (cAMP detection, GLP-1 HEK293 cells)
- applied_conditions: HEK293 host cell
pEC50: −log10 of the molar value.
property_name: pEC50

INSERT INTO assay_data (compound, study_target, property_name, result_number) VALUES
  ('C[C@]1(c2ccc(C#N)cc2F)Oc2cccc(C3=CCN(Cc4nc5cc(C(=O)O)sc5n4C[C@@H]4CCO4)CC3)c2O1 [Compound 011B]', 'GLP-1 receptor (Homo sapiens, UniProt P43220)', 'pEC50', 8.82),
  ('CC1(c2ccc(Cl)cc2F)Oc2cccc(N3CCN(Cc4nc5sc(C(=O)O)cc5n4CC4CCO4)CC3)c2O1 (single isomer, unassigned) [Compound 005A]', 'GLP-1 receptor (Homo sapiens, UniProt P43220)', 'pEC50', 9.82),
  ('CC1(c2ccc(Cl)cc2F)Oc2cccc(C3CCN(Cc4nc5sc(C(=O)O)cc5n4C[C@@H]4CCO4)CC3)c2O1 (single isomer, unassigned)', 'GLP-1 receptor (Homo sapiens, UniProt P43220)', 'pEC50', 9.70),
  ('C[C@]1(c2ccc(C#N)cc2F)Oc2cccc(C3=CCN(Cc4nc5sc(C(=O)O)cc5n4C[C@@H]4CCO4)CC3)c2O1 [Compound 011A]', 'GLP-1 receptor (Homo sapiens, UniProt P43220)', 'pEC50', 9.48),
  ('CC1(c2ccc(Cl)cc2F)Oc2cccc(C3CCN(Cc4nc5sc(C(=O)O)c(F)c5n4C[C@@H]4CCO4)CC3)c2O1 (single isomer, unassigned)', 'GLP-1 receptor (Homo sapiens, UniProt P43220)', 'pEC50', 9.41);

###

- study_target: CYP2C19 (Homo sapiens)
- Construct: human liver microsomes (HLM) were used as the incubation system; from tissue; host or cells: human liver microsomes
- test_protocol: Cytochrome P450 isoenzyme time-dependent inhibition, human liver microsomes
- Assay type: in vitro ADME
- applied_conditions: 30 min pre-incubation with NADPH
- Description: To test the time-dependent inhibitory effect of the test compounds on the activity of human liver microsomal cytochrome P450 isoenzyme CYP2C19. The experiment was divided into two groups. […] After pre-incubation, the probe substrate solution was added, and after incubation for a certain time, the reaction was terminated; the amount of probe substrate metabolites produced in the incubation solution was measured, and the enzyme activity was calculated. […]
pIC50: −log10 of the molar value.
property_name: pIC50

INSERT INTO results (compound, result) VALUES
  ('CC1(c2ccc(Cl)cc2F)Oc2cccc(N3CCN(Cc4nc5sc(C(=O)O)cc5n4CC4CCO4)CC3)c2O1 (single isomer, unassigned) [Compound 005A]', '< 4.30');

###

- study_target: CYP2C19 (Homo sapiens)
- Construct: human liver microsomes (HLM) were used as the incubation system; from tissue; host or cells: human liver microsomes
- test_protocol: Cytochrome P450 isoenzyme time-dependent inhibition, human liver microsomes
- Type: in vitro ADME
- applied_conditions: 30 min pre-incubation without NADPH
pIC50: −log10 of the molar value.
property_name: pIC50

INSERT INTO assay_data (compound, property_name, result_number) VALUES
  ('CC1(c2ccc(Cl)cc2F)Oc2cccc(N3CCN(Cc4nc5sc(C(=O)O)cc5n4CC4CCO4)CC3)c2O1 (single isomer, unassigned) [Compound 005A]', 'pIC50', 4.35);
